# MIC values compiled below
# System: Acinetobacter baumannii
# experimental_details: Broth microdilution MIC (Example 12)
# condition_details: Acinetobacter baumannii CDC 274, ESBL/OXA

[
  {
    "smiles": "NCC[C@H](O)C(=O)N[C@@H]1C[C@H](N)[C@@H](O[C@H]2O[C@H](CN)[C@@H](O)[C@H](O)[C@H]2O)[C@H](O)[C@H]1O[C@H]1O[C@H](CO)[C@@H](O)[C@H](N)[C@H]1O",
    "tested_target": "Acinetobacter baumannii",
    "readout_units": "µg/mL",
    "inequality_sign": "=",
    "MIC": 16
  },
  {
    "smiles": "CC(C)(O/N=C(\\C(=O)N[C@@H]1C(=O)N2C(C(=O)[O-])=C(C[n+]3ccccc3)CS[C@H]12)c1csc(N)n1)C(=O)O",
    "tested_target": "Acinetobacter baumannii",
    "readout_units": "µg/mL",
    "inequality_sign": ">",
    "MIC": 64
  },
  {
    "smiles": "C[C@@H](O)[C@H]1C(=O)N2C(C(=O)O)=C(S[C@@H]3CN[C@H](C(=O)N(C)C)C3)[C@H](C)[C@H]12",
    "tested_target": "Acinetobacter baumannii",
    "readout_units": "µg/mL",
    "inequality_sign": ">",
    "MIC": 8
  },
  {
    "smiles": "C[C@H]1COc2c(N3CCN(C)CC3)c(F)cc3c(=O)c(C(=O)O)cn1c23",
    "tested_target": "Acinetobacter baumannii",
    "readout_units": "µg/mL",
    "inequality_sign": "=",
    "MIC": 8
  }
]

----------
Entries and their MIC values follow.
# System: Burkholderia cepacia complex
# experimental_details: Broth microdilution MIC (Example 10)
# condition_details: B. cepacia isolate 1793; initial MIC testing

[
  {
    "compound": "C[C@H]1[C@H](NC(=O)/C(=N\\OC(C)(C)C(=O)O)c2csc(N)n2)C(=O)N1S(=O)(=O)O [AZT]",
    "tested_target": "Burkholderia cepacia complex",
    "MIC, µg/mL": 128
  },
  {
    "compound": "NC[C@H]1O[C@H](O[C@H]2[C@H](O)[C@@H](O[C@H]3O[C@H](CO)[C@@H](O)[C@H](N)[C@H]3O)[C@H](N)C[C@@H]2N)[C@H](N)C[C@@H]1O [TOB]",
    "tested_target": "Burkholderia cepacia complex",
    "MIC, µg/mL": 64
  },
  {
    "compound": "NCC[C@H](O)C(=O)N[C@@H]1C[C@H](N)[C@@H](O[C@H]2O[C@H](CN)[C@@H](O)[C@H](O)[C@H]2O)[C@H](O)[C@H]1O[C@H]1O[C@H](CO)[C@@H](O)[C@H](N)[C@H]1O [AMK]",
    "tested_target": "Burkholderia cepacia complex",
    "MIC, µg/mL": 64
  },
  {
    "compound": "C[C@@H](O)[C@H]1C(=O)N2C(C(=O)O)=C(S[C@@H]3CN[C@H](C(=O)N(C)C)C3)[C@H](C)[C@H]12 [MEM]",
    "tested_target": "Burkholderia cepacia complex",
    "MIC, µg/mL": 4
  }
]

----------
# System: Escherichia coli
# experimental_details: Broth microdilution MIC (Example 12)
# condition_details: Escherichia coli MMX 5758, ESBL

[
  {
    "smiles": "NCC[C@H](O)C(=O)N[C@@H]1C[C@H](N)[C@@H](O[C@H]2O[C@H](CN)[C@@H](O)[C@H](O)[C@H]2O)[C@H](O)[C@H]1O[C@H]1O[C@H](CO)[C@@H](O)[C@H](N)[C@H]1O",
    "inequality_sign": "=",
    "MIC [µg/mL]": 1
  },
  {
    "smiles": "CC(C)(O/N=C(\\C(=O)N[C@@H]1C(=O)N2C(C(=O)[O-])=C(C[n+]3ccccc3)CS[C@H]12)c1csc(N)n1)C(=O)O",
    "inequality_sign": "=",
    "MIC [µg/mL]": 16
  },
  {
    "smiles": "C[C@@H](O)[C@H]1C(=O)N2C(C(=O)O)=C(S[C@@H]3CN[C@H](C(=O)N(C)C)C3)[C@H](C)[C@H]12",
    "inequality_sign": "≤",
    "MIC [µg/mL]": 0.008
  },
  {
    "smiles": "C[C@H]1COc2c(N3CCN(C)CC3)c(F)cc3c(=O)c(C(=O)O)cn1c23",
    "inequality_sign": "=",
    "MIC [µg/mL]": 8
  }
]
